- reported-conditions: in propylene glycol, 303.2 K
quantity-kind: solubility (mole fraction)
Reply with the value as a number alone.

Ask: # input molecule: `O=C1CN=C(c2ccccc2Cl)c2cc([N+](=O)[O-])ccc2N1` ; wanted: its solubility (mole fraction)
Reply: 0.00104

###

- reported-conditions: in water, 313.2 K
quantity-kind: solubility (mole fraction)
Keep it simple and answer with nothing but the number.

Ask: Value lookup for solubility (mole fraction); key = `O=C1CN=C(c2ccccc2Cl)c2cc([N+](=O)[O-])ccc2N1`
Reply: 2.9e-07

###

- reported-conditions: in water, 298.2 K
quantity-kind: solubility (mole fraction)

Ask: Field request: solubility (mole fraction) | item: `O=C1CN=C(c2ccccc2Cl)c2cc([N+](=O)[O-])ccc2N1`
Reply: 1.9e-07

###

- reported-conditions: in NMP, 318.2 K
quantity-kind: solubility (mole fraction)
Respond with the number and no other words.

Ask: Sample `O=C1CN=C(c2ccccc2Cl)c2cc([N+](=O)[O-])ccc2N1` — what was its solubility (mole fraction)?
Reply: 0.0222

###

- reported-conditions: in propylene glycol, 318.2 K
quantity-kind: solubility (mole fraction)
Reply with the value as a number alone.

Ask: State the recorded solubility (mole fraction) for this entry: `O=C1CN=C(c2ccccc2Cl)c2cc([N+](=O)[O-])ccc2N1`
Reply: 0.00138

###

- reported-conditions: in PEG-200, 318.2 K
quantity-kind: solubility (mole fraction)
// no unit string in output, number only

Ask: Given the compound `O=C1CN=C(c2ccccc2Cl)c2cc([N+](=O)[O-])ccc2N1` , what is its reported solubility (mole fraction)?
Reply: 0.0239

###

- reported-conditions: in PEG-200, 313.2 K
quantity-kind: solubility (mole fraction)
Write the value as a bare number.

Ask: Sample `O=C1CN=C(c2ccccc2Cl)c2cc([N+](=O)[O-])ccc2N1` — what was its solubility (mole fraction)?
Reply: 0.0168

###

- reported-conditions: in ethanol, 318.2 K
quantity-kind: solubility (mole fraction)
Output: the number by itself.

Ask: Please look up its solubility (mole fraction): `O=C1CN=C(c2ccccc2Cl)c2cc([N+](=O)[O-])ccc2N1`
Reply: 0.000652

###

- reported-conditions: in ethanol, 303.2 K
quantity-kind: solubility (mole fraction)
Please reply with the number alone, leaving off any unit.

Ask: Endpoint output: solubility (mole fraction) of `O=C1CN=C(c2ccccc2Cl)c2cc([N+](=O)[O-])ccc2N1` . Value?
Reply: 0.000409

###

- reported-conditions: in NMP, 303.2 K
quantity-kind: solubility (mole fraction)
Lab note: jot down the number only; don't add units.

Ask: Dear colleague, I am looking for the recorded solubility (mole fraction) of the following molecule: `O=C1CN=C(c2ccccc2Cl)c2cc([N+](=O)[O-])ccc2N1`
Reply: 0.0142

###

- reported-conditions: in propylene glycol, 298.2 K
quantity-kind: solubility (mole fraction)
// no unit string in output, number only

Ask: For `O=C1CN=C(c2ccccc2Cl)c2cc([N+](=O)[O-])ccc2N1` , what is its reported solubility (mole fraction)?
Reply: 0.000641

###

- reported-conditions: in water, 303.2 K
quantity-kind: solubility (mole fraction)
Just the number, please, no unit after it.

Ask: What does the record list as solubility (mole fraction) for `O=C1CN=C(c2ccccc2Cl)c2cc([N+](=O)[O-])ccc2N1` ?
Reply: 2.4e-07
